AUC(0-inf) for assorted molecules
assay: Pharmacokinetic evaluation in rats after intravenous or intragastric administration; format: in vivo, SD rats; settings: SD, rat, plasma, po, intragastric administration, 5 mg/kg
Numeric answer only, unit ng·h/mL assumed.

> print(dat)
                                   compound  observed.property  recorded.measurement
1  CCn1c(=O)c2c(nc(/C=C/c3ccc(OC4CCS(=O)(=O)CC4)c(F)c3)n2C)n(CC)c1=O         AUC(0-inf)                 24400

Could you now consider this next molecule?
Task: Can you share its AUC(0-inf)? I mean this molecule: CCn1c(=O)c2c(nc(/C=C/c3ccc(OC4CCS(=O)(=O)CC4)cc3)n2C)n(CC)c1=O
Result: 32300
